Quick list: CC50 at 48 h per entry.
# Assay: in vitro
# Measurement Conditions: African green monkey
Provide a numeric answer, followed by its unit.

NC(=O)c1ncn([C@@H]2O[C@H](CO)[C@@H](O)[C@H]2O)n1 = 486 µM

Moving on to the next compound.
Exam item: Using the record for CCc1c(Cl)c(O)c(Cl)c(O)c1C(=O)O[C@H]1[C@H](O)[C@H](OC)[C@H](OC/C2=C\C=C\C[C@H](O)/C(C)=C/[C@H](CC)[C@@H](O[C@@H]3OC(C)(C)[C@@H](OC(=O)C(C)C)[C@H](O)[C@@H]3O)/C(C)=C/C(C)=C/C[C@@H]([C@@H](C)O)OC2=O)O[C@@H]1C , report its CC50 at 48 h.
Marked response: 126 µM
